The following compounds are listed with their measured TGI values.
# Test system: MCF7 breast
# assay overview: NCI tumour cell line growth inhibition, 48 h
metric name: TGI

{"compound": "O=[N+]([O-])/C(C(Cl)=C(Cl)Cl)=C(/Nc1ccccc1)Sc1ccccc1", "metric name": "TGI", "experimental value": "75.2 µM"}
{"compound": "COc1cc(Cn2c(-c3ccccc3)cc3c2-c2oncc2CC3)cc(OC)c1", "metric name": "TGI", "experimental value": "> 100 µM"}
{"compound": "CCn1c2ccccc2c2cc(Nc3cc(C)[nH]c(=O)n3)ccc21", "metric name": "TGI", "experimental value": "> 100 µM"}
{"compound": "Oc1ccc(Cl)cc1/C=N\\NC(=S)N/N=C/c1cc(Cl)ccc1O", "metric name": "TGI", "experimental value": "> 100 µM"}
{"compound": "Cc1c(O)c(=O)ccn1CCc1ccc(O)cc1", "metric name": "TGI", "experimental value": "58.2 µM"}
{"compound": "CCOC(=O)CCC(NC(=O)c1ccc(Nc2nc3ccccc3nc2C(=O)OCC)cc1)C(=O)OCC (centres undefined)", "metric name": "TGI", "experimental value": "> 79 µM"}
{"compound": "Cc1ccc(S(=NS(=O)(=O)c2ccc(C)cc2)c2ccc(C)cc2)cc1", "metric name": "TGI", "experimental value": "> 100 µM"}
{"compound": "CSCCCNC(=O)[C@H](CSC)NC(=O)c1csc(CCNC(=O)[C@@H](NSc2ccccc2[N+](=O)[O-])C(C)O)n1 (some centres undefined)", "metric name": "TGI", "experimental value": "> 100 µM"}
{"compound": "O=S(=O)(O)c1ccc2c(N=Nc3ccc(Sc4ccc(N=Nc5c(O)ccc6cc(S(=O)(=O)O)ccc56)cc4)cc3)c(O)ccc2c1", "metric name": "TGI", "experimental value": "> 100 µM"}
